System: 2Sp-muMax20 (muMax20 with two 2,6-bis(methyl)pyridine Cys staples)
Assay Remarks: PBM 8-mer E-score (E-score (rank enrichment, -0.5 to 0.5)); higher = stronger preferential binding
The full ranking holds about 33,000 sequences; the median of “E-score (rank enrichment, -0.5 to 0.5)” is about -0.0043, and the highest 2% start at about 0.24. Only a selection was taken, and the highest values are over-represented in it overall.
Entries get a class label from measured PBM 8-mer E-score. See ranges: low: < -0.02; mid: ≥ -0.02 and < 0.06; high: ≥ 0.06

Known results for sequences:
>>> label_value("CTCGTCTC")
"mid"
>>> label_value("ATAGTTGA")
"high"
>>> label_value("ACTGAATG")
"low"
>>> label_value("AGTTTCAA")
"low"

Ask: Which class does AGGACTCA fall in?
Reply: mid

* * *

System: 2Sp-muMax20 (muMax20 with two 2,6-bis(methyl)pyridine Cys staples)
Assay Remarks: PBM 8-mer E-score (E-score (rank enrichment, -0.5 to 0.5)); higher = stronger preferential binding
Whole data set: some 33,000 sequences, median “E-score (rank enrichment, -0.5 to 0.5)” near -0.0043, cut for the highest 2% near 0.24. The sample as a whole holds a higher share of the highest values than the screen did.
The entries below are paired with their reported PBM 8-mer E-score.
Output spec: single numeric token, no unit.

>>> value_observed("ACGAACTC")
-0.159

--- query ---
Ask: State PBM 8-mer E-score on 2Sp-muMax20 (muMax20 with two 2,6-bis(methyl)pyridine Cys staples). Entry: CAACTTGC
Reply: -0.157

* * *

Test system: 2Sp-muMax20 (muMax20 with two 2,6-bis(methyl)pyridine Cys staples)
Assay Remarks: PBM 8-mer E-score (E-score (rank enrichment, -0.5 to 0.5)); higher = stronger preferential binding
In all, about 33,000 sequences were measured (“E-score (rank enrichment, -0.5 to 0.5)”: median about -0.0043, highest 2% from about 0.24 on). What follows is part of a selection rich in the highest values, with near analogues and random picks from the rest.
Property: PBM 8-mer E-score
Output spec: single numeric token, no unit.

Please review the following examples before continuing.
>>> value_observed("AATGTGGC")
0.124
>>> value_observed("ATGGGGAC")
0.0501
>>> value_observed("CATGTGGA")
0.16

Ask: Answer with reported PBM 8-mer E-score of CATGTGGC
Reply: 0.173

Ask: Answer with reported PBM 8-mer E-score of ATTTGCCA
Reply: -0.024

Ask: Answer with reported PBM 8-mer E-score of ATCTACCA
Reply: 0.119

Ask: Answer with reported PBM 8-mer E-score of ATGGGGAA
Reply: 0.266

Ask: Answer with reported PBM 8-mer E-score of AAACGGTG
Reply: -0.0442

Ask: Answer with reported PBM 8-mer E-score of CATGCACC
Reply: 0.161

Ask: Answer with reported PBM 8-mer E-score of CATGTGGG
Reply: 0.329

Ask: Answer with reported PBM 8-mer E-score of GCGAGGGA
Reply: 0.0348

* * *

Tested on: 2Sp-muMax20 (muMax20 with two 2,6-bis(methyl)pyridine Cys staples)
Assay Remarks: PBM 8-mer E-score (E-score (rank enrichment, -0.5 to 0.5)); higher = stronger preferential binding
Over roughly 33,000 sequences, “E-score (rank enrichment, -0.5 to 0.5)” has its median near -0.0043; the highest 2% begin near 0.24. This excerpt belongs to a sample that is enriched for the highest values.
Rule: PBM 8-mer E-score of 0.07 or more gives true (1); anything lower gives false (0).

Known results for sequences:
>>> label_value("CACGGACA")
"false (0)"
>>> label_value("ATATTCAC")
"true (1)"
>>> label_value("ACCAGCGA")
"false (0)"

Ask: Hi team, for AGCACGCG , is the recorded PBM 8-mer E-score at or above 0.07?
Reply: true (1)

Ask: Hi team, for ATCACGTA , is the recorded PBM 8-mer E-score at or above 0.07?
Reply: false (0)

Ask: Hi team, for CTATTCAA , is the recorded PBM 8-mer E-score at or above 0.07?
Reply: true (1)

Ask: Hi team, for ATATTCAT , is the recorded PBM 8-mer E-score at or above 0.07?
Reply: true (1)

Ask: Hi team, for AGCACGCA , is the recorded PBM 8-mer E-score at or above 0.07?
Reply: false (0)

Ask: Hi team, for GAGCTATC , is the recorded PBM 8-mer E-score at or above 0.07?
Reply: false (0)
